Tested on: Candida albicans
Assay: Antifungal activity against Candida albicans PCM 1409 PZH after 3 to 7 days
Format: functional, organism-based
OBSERVATION TYPE: MIC (µM)

COMPOUND	ASSAY SYSTEM	UNITS LABEL	QUANTITATIVE READOUT
C[C@@H]1[C@H](O)[C@@H](C)/C=C/C=C/C=C/C=C/C=C/C=C/C=C/[C@H](O[C@@H]2O[C@H](C)[C@@H](O)[C@H](N)[C@@H]2O)C[C@@H]2O[C@](O)(C[C@@H](O)C[C@@H](O)[C@H](O)CC[C@@H](O)C[C@@H](O)CC(=O)O[C@H]1C)C[C@H](O)[C@H]2C(=O)O [AMPHOTERICIN B]	Candida albicans	µM	0.5

P. CC1CCN(CCCCCSc2ccc(/C=C/C(=O)c3ccccc3)cc2)CC1
Q. O=C(/C=C/c1ccc(SCCCCCN2CCCCC2)cc1)c1ccccc1
Asked: Returns: the argument ( P or Q ) having the larger MIC. # reply format: chosen label
Given back: P
(P: 184 µM, Q: 127 µM)
